- Assay text: yeast display, Sf9 membrane polyspecificity reagent, FACS + sequencing; frameworks hold sequencing errors
Property name: polyreactivity (PSR sort gate)

QVQLVESGGGLVQAGGSLRLSCAASGSIFIRYVMGWYRQAPGKERELVAAITGSGSRTYYADSVKGRFTISRDNAKNTVYLQMNSLKPEDTAVYYCAADWTKSRRYYWGQGTQVTVSS    high polyreactivity
QVQLVESGGGLVQAGGSLRLSCAASGSIFGWYAMGWYRQAPGKERELVATISSGGGNTYYADSVKGRFTISRDNAKNTVYLQMNSLKPEDTAVYYCAADRTFYGIRFDYWGQGTQVTVSS    low polyreactivity
QVQLVESGGGLVQAGGSLRLSCAASGSIFYNNSKGWYRPAPGKERELVAAISLRGGSTYYADSVKGRFTISRDNAKNTVYLQMNSLKPEDSAVYYCAAVTGARYYPARASRGKFDYWGQGTQVTVSS    high polyreactivity
QVQLVESGGGLVQAGGSLSLSCAASGSTFGDYAMGWYRQAPGKERELVAAITSSGGRTFYADSVKGRFTISRDNAKNTVYLQMNSLKPEDHAVYYCAAEFTDPPSEYEYWGQGTQVTVSS    low polyreactivity

Report polyreactivity (PSR sort gate) for QVQLVESGGGLVQAGGSLRLSCAASGSTFVYYAMGWSRQAPGKERELVASIRTGGTTNYADSVKGRFTISRDNAKNTVYLQMNSLKPEDTAVYYCNKDTRPTDTTVSLYYWSAWRDYWGQGTQVTVSS
low polyreactivity

Given QVQLVESGGGLVQAGGSLRLSCAASGITFRFYAMGWYRQAPGKERELVAVISRGGGTTYYADSVKGRFTISRDNAKNTVYLQMNSLKPADTSVYYCAADYYYVQSELGYDYWGQGTQVTVSS , respond with its polyreactivity (PSR sort gate).
high polyreactivity

Quickly give me recorded polyreactivity (PSR sort gate) for QVQLVESGGGLVQAGGSLRLSCAASGSIFSGYAMGWYRQAPGKERELVAAISRGGSTNYADSVKGRFTISRDNAKNTVYLQMNSLKPEDTAVYYCATTPTKYHYAFGYWGQGSQVTVSS
low polyreactivity

Supply measured polyreactivity (PSR sort gate) of QFQLVESGGGLVQAGGSLRLSCAASGFIFSNYAMGWYRQAPGKERELVASISWGGGSTYYADSVKGRFTISRDNAKNTVYLQMNSLKPEDTAVYYCATVRSLYSYDYWGQGTQVTVSS in your reply.
high polyreactivity

Tell me polyreactivity (PSR sort gate) reported for QVQLVESGGGLVQAGGSLRLSCAASGRIFLSYTMGSYRQAPGKERELVAAISRGGRTYYADSVKGRFTISLDNAKNTVYLQMNSLKPEDTAVYYCAKKYGRYGSLRGRTIDDYWGQGTEVTVSS
low polyreactivity

Please list polyreactivity (PSR sort gate) recorded for the sequence QVQLVDSGGGLVQAGGSLRLSCAASGITFWWYAMGWSRPAPGKEREVVAAISQRGGTYYADSVKGRFTISRDKAKNTVFLQMKSLKPDDTAVDSCAAVVYSRYAPYSAQYDDWGQGTQVTVSS
high polyreactivity

Entry QVQLVESGGGLVQAGGSLRLSCAASGRIFYYNAMGWYRPAPGKERELVATITGSGGSTYYADSVKGRFTISRDNAKNTVYLQMNSLKPEDTAVYYCNATRWYYDFYKLDYWGQGTQVTVSS needs its polyreactivity (PSR sort gate) filled in; supply it.
low polyreactivity
